molecular target: human neuropeptide Y5 receptor (Homo sapiens); construct: expressed in transfected cells; membranes; experiment: NPY5 HTS centrifugation assay: competition with 125I-PYY for binding to membranes of NPY5-transfected HEK293 cells; settings: % inhibition of 125I-PYY binding at 3 uM compound
Sequence (Q15761 whole entry): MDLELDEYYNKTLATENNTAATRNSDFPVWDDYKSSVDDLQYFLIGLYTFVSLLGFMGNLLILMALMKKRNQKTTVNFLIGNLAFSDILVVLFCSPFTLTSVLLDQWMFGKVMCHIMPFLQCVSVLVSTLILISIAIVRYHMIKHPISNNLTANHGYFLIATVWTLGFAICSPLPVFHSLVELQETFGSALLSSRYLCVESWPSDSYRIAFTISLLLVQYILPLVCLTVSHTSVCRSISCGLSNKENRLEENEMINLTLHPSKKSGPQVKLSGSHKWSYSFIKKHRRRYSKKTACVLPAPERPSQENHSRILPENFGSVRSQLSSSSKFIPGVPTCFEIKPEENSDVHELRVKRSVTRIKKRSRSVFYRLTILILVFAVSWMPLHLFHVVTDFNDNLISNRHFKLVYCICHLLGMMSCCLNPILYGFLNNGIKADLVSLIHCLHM
Where a name gives a salt, the structure may show the parent alone.
Entry flag: MET if inhibition at 3 µM reaches 90%; NOT MET if it does not.

O=C(NC1=N[C@H]2CCc3cc(Cl)ccc3[C@H]2C1)[C@H]1CC[C@H](CNS(=O)(=O)c2ccccc2)CC1 (relative stereo)
MET
COc1ccc2c(c1)CCC1NC(N)(C(=O)CN3CCC(n4c(=O)[nH]c5ccccc54)CC3)CC21 (stereo not drawn)
NOT MET
O=C(NC1=N[C@H]2CCc3cc(O)ccc3[C@H]2C1)[C@H]1CC[C@H](CNS(=O)(=O)c2ccccc2)CC1 (relative stereo)
MET
COc1ccc2c(c1)CC[C@@H]1N=C(NC[C@H]3CC[C@H](CNS(=O)(=O)c4ccccc4)CC3)C[C@H]21 (relative stereo)
MET
O=C(CN1CCC(n2c(=O)[nH]c3ccccc32)CC1)NC1=N[C@@H]2CCc3ccccc3[C@@H]2C1
NOT MET
NC1(C(=O)CN2CCC(n3c(=O)[nH]c4ccccc43)CC2)CC2c3ccc(O)cc3CCC2N1 (stereo not drawn)
NOT MET
O=C(NC1=N[C@H]2CCc3cc(F)ccc3[C@H]2C1)[C@H]1CC[C@H](CNS(=O)(=O)c2ccccc2)CC1 (relative stereo)
MET
O=S(=O)(NC[C@H]1CC[C@H](CNC2=N[C@H]3CCc4cc(Cl)ccc4[C@H]3C2)CC1)c1ccccc1 (relative stereo)
MET
O=C(NC1=N[C@H]2CCc3ccccc3[C@H]2C1)[C@H]1CC[C@H](CNS(=O)(=O)c2ccccc2)CC1 (relative stereo)
MET
O=S(=O)(NC[C@H]1CC[C@H](CNC2=N[C@H]3CCc4ccccc4[C@H]3C2)CC1)c1ccccc1 (relative stereo)
MET
COc1ccc2c(c1)CC[C@@H]1N=C(NC(=O)[C@H]3CC[C@H](CNS(=O)(=O)c4ccccc4)CC3)C[C@H]21 (relative stereo)
MET
O=S(=O)(NC[C@H]1CC[C@H](CNC2=N[C@@H]3CCc4cc(O)ccc4[C@@H]3C2)CC1)c1ccccc1 [Compound 10, hydrochloride]
MET

Entry source: patent US6841552B1
